Tested on: IL-12 production
Assay: In vitro Assay for IL-12 Inhibition (IL-12 production by THP-1 cells or human peripheral whole blood, ELISA)
Type: cell-based
Settings: Homo sapiens, THP-1, 48 h, read-out: IC50 values for the inhibition of IL-12 production
pIC50: −log10 of the molar value.

- compound: "C=C1/C(=C\\C=C2/CCC[C@]3(C)[C@@H]([C@H](C)CCCC(C)(C)O)CC[C@@H]23)C[C@@H](O)C[C@@H]1O [Calcitriol, reference compound]"
  pIC50: 7.22

---

System: IL-12 production
Experiment: In vitro Assay for IL-12 Inhibition (IL-12 production by THP-1 cells or human peripheral whole blood, ELISA)
Assay type: cell-based
Conditions: THP-1 cells stimulated with SAC and huIFN-γ (1000 U/ml), or alternatively human peripheral whole blood primed with huIFN-γ then SAC; supernatants after 48 hours; IL-12 by ELISA; read-out: IC50 values for the inhibition of IL-12 production
pIC50: −log10 of the molar value.
reportedMetric: pIC50

- compound: "C[C@H](CC=CC#CC(C)(C)O)[C@H]1CC[C@H]2/C(=C/C=C3C[C@@H](O)C[C@H](O)C3)CCC[C@]12C [Example 13a]"
  experimentalTarget: "IL-12 production"
  reportedMetric: "pIC50"
  obsValue: 8.00
- compound: "C=C1/C(=C\\C=C2/CCC[C@]3(C)[C@@H]([C@H](C)C/C=C/C=C/C(C)(C)O)CCC[C@@H]23)C[C@@H](O)C[C@@H]1O"
  experimentalTarget: "IL-12 production"
  reportedMetric: "pIC50"
  obsValue: 9.00
- compound: "C[C@H](CC=CC#CC(O)(C(F)(F)F)C(F)(F)F)[C@H]1CC[C@H]2/C(=C/C=C3C[C@@H](O)C[C@H](O)C3)CCC[C@]12C [Example 13d]"
  experimentalTarget: "IL-12 production"
  reportedMetric: "pIC50"
  obsValue: 8.00
- compound: "C[C@H](CC=CC#CC1(O)CCCC1)[C@H]1CC[C@H]2/C(=C/C=C3C[C@@H](O)C[C@H](O)C3)CCC[C@]12C [Example 13c]"
  experimentalTarget: "IL-12 production"
  reportedMetric: "pIC50"
  obsValue: 8.00
- compound: "C=C1C(=CC=C2CCCC3(C)C2CCC3C(C)CC=CC=CC(C)(C)O)CC(O)CC1O (stereo not drawn)"
  experimentalTarget: "IL-12 production"
  reportedMetric: "pIC50"
  obsValue: 8.00
- compound: "C[C@H](CC=C/C=C/C1(O)CCCC1)[C@H]1CC[C@H]2/C(=C/C=C3C[C@@H](O)C[C@H](O)C3)CCC[C@]12C [Example 13f]"
  experimentalTarget: "IL-12 production"
  reportedMetric: "pIC50"
  obsValue: 8.00
- compound: "CCC(O)(/C=C/C=CC[C@@H](C)[C@H]1CC[C@H]2/C(=C/C=C3C[C@@H](O)C[C@H](O)C3)CCC[C@]12C)CC [Example 13e]"
  experimentalTarget: "IL-12 production"
  reportedMetric: "pIC50"
  obsValue: 9.00
- compound: "C=C1/C(=C\\C=C2/CCC[C@]3(C)C([C@H](C)C/C=C/C=C/C(C)(C)O)=CCC[C@@H]23)C[C@@H](O)C[C@@H]1O"
  experimentalTarget: "IL-12 production"
  reportedMetric: "pIC50"
  obsValue: 9.00
- compound: "C=C1/C(=C\\C=C2/CCC[C@]3(C)[C@@H]([C@H](C)C/C=C/C=C/C(C)(C)O)CC[C@@H]23)C[C@H](O)C[C@@H]1O"
  experimentalTarget: "IL-12 production"
  reportedMetric: "pIC50"
  obsValue: 7.52
